In this section we review reported ENDOHDL Test 2 values for a set of compounds.
# TEST SYSTEM: murine SR-BI (Mus musculus, UniProt Q61009)
# Construct: expressed in transfected cells; host or cells: ldlA-7 (LDL receptor deficient Chinese hamster ovary cells)
# ASSAY: Uptake of DiI from DiI-HDL by ldlA[mSR-BI] cells (high throughput screen and concentration dependence)
# Assay type: cell-based
# TEST PARAMETERS: Test 2
QUANTITY: ENDOHDL Test 2

> print(dat)
                                    compound  reported.measurement
 1           Cc1cccc(/C=N/Nc2nc(C)nc(C)n2)c1                  0.66
 2  C=CCN1C(=O)[C@H]2Cc3c([nH]c4ccccc34)[C@@H](c3ccc4c(c3)OCO4)N2C1=S                  0.54
 3  O=C(Cl)c1ccccc1NS(=O)(=O)/C=C/c1ccccc1 [MIT 9952-4]                  1.33
 4  CCOC(=O)c1c(/N=C/c2ccccc2[N+](=O)[O-])sc2c1CCCC2                  0.46
 5   Clc1ccc(-c2nc3ccc4ccccc4c3c3c2CCCC3)cc1                  0.62
 6    Cc1[nH]c2ccccc2c1-c1c2ccccc2nc2ccccc12                  0.65
 7  COc1ccc([N+](=O)[O-])cc1NC(=S)NC(NC(=O)c1ccccc1Br)C(Cl)(Cl)Cl (centres unmarked)                  0.66
 8  O=C(Nc1ccc(Cl)cc1C(=O)c1ccc(Cl)cc1)c1cc(Cl)ccc1NS(=O)(=O)c1ccc(Cl)cc1                  0.46
 9            CCNc1ccc(N)c(C)c1C.O=S(=O)(O)O                  0.69
10  O=C(CNS(=O)(=O)c1ccc([N+](=O)[O-])cc1)N/N=C/c1ccccc1                   0.5
11  Cc1cc(C(=O)N/N=C\c2c(O)ccc3ccccc23)[nH]n1                  0.52
12          COc1ccccc1NC(=O)c1ccc(OC)c(OC)c1                  0.66
13  COc1ccccc1C(=O)NC(Nc1cccc2ccccc12)C(Cl)(Cl)Cl (centres unmarked)                  0.59
14  Cl.c1ccc(CCNC2CCCc3c2[nH]c2ccc(C4CCCCC4)cc32)cc1 (centres unmarked)                   1.0
15      C=C(N/N=C(\C)c1ccccc1C(=O)O)c1ccccc1                  1.26
16  Cc1cc(=O)oc2cc(OCc3ccccc3)c(OCc3ccccc3)cc12                  0.33
17  O=C1CC(N2CCOCC2)C(=O)N1c1ccc(Br)cc1 (centres unmarked) [MIT 9952-96]                  1.17
18  CCn1c(/C=C/C=C2\SCCN2C)[n+](CC)c2cc(Cl)ccc21                  0.63
19  C=CC[n+]1c(C)n(CC)c2cc(Cl)c(Cl)cc21.[I-]                   0.6
20  C/C(=N\NC(=O)c1ccc(-c2ccccc2)cc1)c1cccc(N)c1                  0.61
21  O=C(Cc1ccccc1)N/N=C/c1cccn1-c1ccc([N+](=O)[O-])cc1                  0.64
22               COC(=O)/C=C1/Nc2ccccc2OC1=O                  1.36
23         COc1cc2ccccc2cc1C(=O)Nc1cccc(C)c1                  0.39
24  CCOC(=O)c1c(C)n(-c2ccccc2)c2ccc(NS(=O)(=O)c3ccccc3)cc12                  0.55
25  COc1cccc(NC(=O)c2sc(-c3ccccc3)nc2-c2ccc([N+](=O)[O-])cc2)c1                  0.63
26  O=C(Nc1cc(Sc2nc3ccccc3s2)cc([N+](=O)[O-])c1)c1ccc(F)c(F)c1                  0.54
27  CC(=O)OCc1c(C)cc(C)c(/C=N/Nc2ccc([N+](=O)[O-])cc2)c1C                  0.48
28  O=C(Cl)c1ccc2c(c1)C(=O)N(c1ccc(-c3ccnc(-c4ccc(N5C(=O)c6ccc(C(=O)Cl)cc6C5=O)cc4)n3)cc1)C2=O                  1.21
29  O=C(COc1ccc(Cl)cc1)N/N=C/c1ccc(Cl)cc1 [MIT 9952-31]                  1.17

###

# TEST SYSTEM: murine SR-BI (Mus musculus, UniProt Q61009)
# Construct: expressed in transfected cells; host or cells: ldlA-7 (LDL receptor deficient Chinese hamster ovary cells)
# ASSAY: Uptake of DiI from DiI-HDL by ldlA[mSR-BI] cells (high throughput screen and concentration dependence)
# Type: cell-based
# TEST PARAMETERS: Test 1
If the reported ENDOHDL Test 1 equals or exceeds 0.6, assign true. If not, assign false.

> print(dat)
                                    compound    cat
 1                   O=C(Cl)CCNC(=O)c1ccccc1   true
 2  CC(C)(C)c1ccc(C(=O)Nc2cccc(NC(=O)c3cccc([N+](=O)[O-])c3)c2)cc1   true
 3  O=C(O)C(Cc1ccccc1)N1C(=O)CSC1=S (stereo not shown)   true
 4               CCc1c2cccn2cc(C)[n+]1C.[I-]   true
 5  CO/C(=N\C(NC(=S)Nc1ccc(Br)cc1)C(Cl)(Cl)Cl)c1ccc(C)cc1 (stereo not shown)   true
 6    CC(C)(C)c1ccc(C(=O)Nc2ccccc2C(=O)O)cc1   true
 7  Brc1ccc(-c2cc(-c3ccccc3)nc(N3CCOCC3)n2)cc1   true
 8  O=C1C(=O)c2ccc(Oc3ccc([N+](=O)[O-])cc3)c3cccc1c23   true
 9  Cc1ccc(N2SC(NS(=O)(=O)c3ccc(C)cc3)N=C2c2ccccc2)cc1 (stereo not shown)   true
10  CSc1sc(SC)c(C[n+]2ccccc2)c1C[n+]1ccccc1.[I-].[I-]  false
11    O=C(COc1ccc(Cl)cc1Cl)Nc1cccc(C(=O)O)c1   true
12       COc1ccc(C(=O)Nc2ccc(C(C)C)cc2)cc1OC   true
13  CCOC(=O)c1c(NC(=O)c2ccc(N)c([N+](=O)[O-])c2)sc2c1CCCC2  false

###

# TEST SYSTEM: murine SR-BI (Mus musculus)
# Construct: expressed in transfected cells; host or cells: ldlA-7 (LDL receptor deficient Chinese hamster ovary cells)
# Sequence (Q61009 1-509): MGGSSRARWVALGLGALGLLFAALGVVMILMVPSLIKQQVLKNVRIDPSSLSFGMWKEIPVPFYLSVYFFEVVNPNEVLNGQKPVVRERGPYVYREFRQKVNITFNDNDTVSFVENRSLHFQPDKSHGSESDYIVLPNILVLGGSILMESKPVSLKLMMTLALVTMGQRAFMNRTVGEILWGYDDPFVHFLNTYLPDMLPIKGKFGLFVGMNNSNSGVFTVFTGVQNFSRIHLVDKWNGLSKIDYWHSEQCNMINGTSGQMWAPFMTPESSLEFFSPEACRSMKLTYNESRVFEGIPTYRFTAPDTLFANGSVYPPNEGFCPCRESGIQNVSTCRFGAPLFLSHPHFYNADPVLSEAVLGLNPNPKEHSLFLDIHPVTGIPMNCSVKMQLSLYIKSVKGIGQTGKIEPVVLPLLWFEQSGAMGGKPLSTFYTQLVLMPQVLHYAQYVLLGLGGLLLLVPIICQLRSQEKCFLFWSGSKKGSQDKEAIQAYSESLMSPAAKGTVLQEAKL
# ASSAY: Uptake of DiI from DiI-HDL by ldlA[mSR-BI] cells (high throughput screen and concentration dependence)
# Assay type: cell-based
# TEST PARAMETERS: Test 1
QUANTITY: ENDOHDL Test 1

> print(dat)
                                    molecule  reported.measurement
 1  Cc1ccc2[nH]c3c(c2c1)CCCC3NCC12CC3CC(CC(C3)C1)C2 (centres unmarked) [MIT 9952-265]                  0.26
 2  O=C(CNS(=O)(=O)c1ccc([N+](=O)[O-])cc1)N/N=C/c1ccccc1 [MIT 9952-186]                   0.5
 3  CCN(CC)CC(=O)Nc1ccc2c(c1)N(C(=O)c1ccccc1)c1ccccc1CC2.Cl [MIT 9952-178]                   0.4
 4  O=C(O/N=C/c1ccc([N+](=O)[O-])o1)c1ccccc1 [MIT 9952-195]                  1.22
 5  CC(=O)C1=C(C)NC(=S)NC1c1ccco1 (centres unmarked) [MIT 9952-264]                  0.45
 6  CCc1nnc(N2CCN(c3ncnc4c3cnn4-c3ccccc3)CC2)s1 [MIT 9952-248]                  0.68
 7  CCN(CC)S(=O)(=O)c1cc(C(=O)Nc2ccc(Br)cc2)ccc1Br [MIT 9952-192]                  0.57
 8  Nc1nc(N)nc(-c2cccc(-c3nc(N)nc(N)n3)c2)n1 [MIT 9952-173]                  1.96
 9  COc1ccccc1NC(=O)Nc1ccc2ccccc2c1 [MIT 9952-149]                  0.62
10  CCS(=O)(=O)C(=C(Nc1ccc(OC)cc1)Nc1ccc(OC)cc1)S(=O)(=O)CC [MIT 9952-220]                  1.13
11  CCn1c(COC)c(-c2ccccc2)c2cc([N+](=O)[O-])ccc21 [MIT 9952-143]                  0.66
12  CN(C)/C=N/C(=O)CN1CCCC1=O [MIT 9952-148]                  1.44
13  CCS(=O)(=O)C(=C(Nc1ccc(OC)cc1)Nc1ccc(OC)cc1)S(=O)(=O)CC [MIT 9952-57]                  1.13
14  CCn1c(/C=C/C=C2\SCCN2C)[n+](CC)c2cc(Cl)ccc21 [MIT 9952-92]                   0.7
15  Cc1nc(O)c(C(c2cc([N+](=O)[O-])ccc2O)c2c(O)nc(C)nc2O)c(O)n1 [MIT 9952-82]                  1.27
16  CCOC(C(=O)OC(C)CN(C)C)(c1ccccc1)c1ccccc1.Cl (centres unmarked) [MIT 9952-128]                  1.23
17  COC(=O)Nc1cc([N+](=O)[O-])cc([N+](=O)[O-])c1Br [MIT 9952-79]                  0.61
